- experimental_system: CDK2/Cyclin A (Homo sapiens, UniProt P24941)
- method: Inhibition of CDK2/Cyclin A Retinoblastoma Kinase Activity
- Format: biochemical
- condition_info: at 0.03 μM
Would you kindly list CDK2 % Inhibition at 0.03 μM for each of these compounds?
Answers are plain numbers, in %.

Example compounds with recorded CDK2 % Inhibition at 0.03 μM:
compound	CDK2 % Inhibition at 0.03 μM [%]
CNc1ccccc1C(=O)N1CCC(Nc2nc(N)c(C(=O)c3c(F)cccc3F)s2)CC1 [Example R112]	12
Nc1nc(NC2CCN(C(=O)C(=O)c3c[nH]c4ccccc34)CC2)sc1C(=O)c1c(F)cccc1F [Example R5]	−31
Nc1nc(NC2CCN(C(=O)CNc3ccc(O)cc3)CC2)sc1C(=O)c1c(F)cccc1F [Example R169]	22

Parameters: items (list). Returns: CDK2 % Inhibition at 0.03 μM for each item.
1. CCC(CC)C(=O)N1CCC(Nc2nc(N)c(C(=O)c3c(F)cccc3F)s2)CC1 [Example R164]
2. Cc1cc(C(=O)N2CCC(Nc3nc(N)c(C(=O)c4c(F)cccc4F)s3)CC2)no1 [Example R64]
3. Nc1nc(NC2CCN(C(=O)c3cccnc3Oc3ccccc3)CC2)sc1C(=O)c1c(F)cccc1F [Example R27]
4. COc1cccc(OC)c1C(=O)N1CCC(Nc2nc(N)c(C(=O)c3c(F)cccc3F)s2)CC1 [Example R118]
5. COc1ccc(C=CC(=O)N2CCC(Nc3nc(N)c(C(=O)c4c(F)cccc4F)s3)CC2)c(Cl)c1OC [Example R61]

1. 9
2. 9
3. 6
4. 36
5. 63
